Test system: ERRα (GAL-ERRa)
protocol-details: MH100x4 luciferase reporter with GAL-ERRa
Format: cell-based
Design: unit not given here
condition-context: Table 2; dose 5 (unit not given); None 8.54
// classify: if (Reporter Activity < 5) Satisfied else Not satisfied

Sample answers from the record:
>  <compound>
CCCCCCCCCCCCOc1ccc(/C(CC)=C(\CC)c2ccc(O)cc2)cc1 [DY14]

>  <class-assignment>
Not satisfied

$$$$
>  <compound>
C=CCOc1ccc(C(CC)=C(CC)c2ccc(OCC=C)cc2)cc1 [DY20]

>  <class-assignment>
Not satisfied

$$$$
>  <compound>
CCCCCCCCCCCCOc1ccc(C(CC)=C(CC)c2ccc(OCCCCCCCCCCCC)cc2)cc1 [DY15]

>  <class-assignment>
Not satisfied

$$$$
>  <compound>
C=CCc1cc(C(CC)=C(CC)c2ccc(O)c(CC=C)c2)ccc1O [DY22]

>  <class-assignment>
Satisfied

$$$$
>  <compound>
CCC(=C(CC)c1ccc(O)c(C(C)(C)C)c1)c1ccc(O)cc1 [DY18]

>  <class-assignment>
Satisfied

$$$$

Consider the compound CCC(=C(CC)c1ccc(O)c(C=C(C)C)c1)c1ccc(O)cc1 [DY16] . Is its Reporter Activity strictly less than 5?
Not satisfied

Further, for CCC(=C(CC)c1ccc(Oc2cccc(C=O)c2)cc1)c1ccc(O)cc1 [DY19] ?
Not satisfied

Further, for C=CCOc1ccc(C(CC)=C(CC)c2ccc(O)c(CC=C)c2)cc1 [DY21] ?
Satisfied

Further, for CCC(=C(CC)c1ccc(O)c(C(C)C)c1)c1ccc(O)cc1 [DY17] ?
Not satisfied
